- measured.target: human CA IX (Homo sapiens)
- test: Stopped-flow CO2 hydrase assay, CA IX
- condition: Ki CA II / Ki CA IX

compound: NNC(=S)Nc1cccc(S(N)(=O)=O)c1 [Compound 3b]
Selectivity Ratio II/IX: 2.4
--
compound: NS(=O)(=O)c1ccc(CCNC(=S)N/N=C/c2ccc(Br)cc2)cc1 [Compound 4p]
Selectivity Ratio II/IX: 1.6
--
compound: NNC(=S)NCCc1ccc(S(N)(=O)=O)cc1 [Compound 3c]
Selectivity Ratio II/IX: 0.65
--
compound: NS(=O)(=O)c1ccc(CCNC(=S)N/N=C/c2ccccc2)cc1 [Compound 4l]
Selectivity Ratio II/IX: 2.3
--
compound: NS(=O)(=O)c1ccc(CCNC(=S)N/N=C/c2ccccn2)cc1 [Compound 5c]
Selectivity Ratio II/IX: 2.9
--
compound: COc1ccc(/C=N/NC(=S)NCCc2ccc(S(N)(=O)=O)cc2)cc1 [Compound 4m]
Selectivity Ratio II/IX: 2.0
--
compound: NS(=O)(=O)c1cccc(NC(=S)N/N=C/c2ccccn2)c1 [Compound 5b]
Selectivity Ratio II/IX: 0.49
--
compound: NS(=O)(=O)c1ccc(CCNC(=S)N/N=C/c2ccc(F)cc2)cc1 [Compound 4n]
Selectivity Ratio II/IX: 2.0
--
compound: NS(=O)(=O)c1ccc(CCNC(=S)N/N=C/c2ccc(Cl)cc2)cc1 [Compound 4o]
Selectivity Ratio II/IX: 1.9
